Assay: In vitro proton relaxivity in human serum
Format: physicochemical
Settings: 60 MHz, 40° C.
So I've got a bunch of compounds here, and I need their r1 (longitudinal relaxivity) values.
Entry rule: numbers only, all in mM⁻¹ s⁻¹.

Need r1 (longitudinal relaxivity) of CN1CCN2CC(=O)[O][Mn][O]C(=O)CN(CC1)Cc1cccc(n1)C2 [Prior Art Mn Chelate, reference compound] , thanks.
3.0

Now try CN1CCN2Cc3cccc(n3)CN(CC1)C(CCC(=O)NC[C@H](O)[C@@H](O)[C@H](O)[C@H](O)CO)C(=O)[O][Mn][O]C(=O)C2CCC(=O)NC[C@H](O)[C@@H](O)[C@H](O)[C@H](O)CO (stereo partly drawn) [Mn Chelate 5] .
5.2

Now try CN1CCN2Cc3cccc(n3)CN(CC1)C(CC(=O)NC[C@H](O)[C@@H](O)[C@H](O)[C@H](O)CO)C(=O)[O][Mn][O]C(=O)C2CC(=O)NC[C@H](O)[C@@H](O)[C@H](O)[C@H](O)CO (stereo partly drawn) [Mn Chelate 5a] .
3.7
